assay: Lipophilicity coefficient RM0 by reversed phase thin layer chromatography; format: physicochemical; settings: RP-18 TLC, methanol/phosphate buffer pH=7.4
metric: RM0

{"compound": "O=C(/C=C/c1ccccc1)NCCCCO", "value": 1.60}
{"compound": "CC(CO)NC(=O)/C=C/c1ccc(Cl)cc1 (centres unmarked)", "value": 2.12}
{"compound": "O=C(/C=C/c1ccccc1)NCCCCCO", "value": 2.15}
{"compound": "O=C(/C=C/c1ccc(Cl)cc1Cl)NCCCCO", "value": 2.78}
{"compound": "O=C(/C=C/c1ccccc1)NCCCCCCO", "value": 2.40}
{"compound": "Cc1ccc(/C=C/C(=O)NCCCCO)cc1", "value": 2.27}
{"compound": "O=C(/C=C/c1ccc(Cl)cc1Cl)N1CCC(O)CC1", "value": 2.80}
{"compound": "Cc1ccc(/C=C/C(=O)NC(C)CO)cc1 (centres unmarked)", "value": 2.17}
{"compound": "O=C(/C=C/c1ccc(Cl)cc1)NCCCCCCO", "value": 3.02}
{"compound": "O=C(/C=C/c1ccc(Cl)cc1)NCCO", "value": 1.93}
{"compound": "O=C(/C=C/c1ccc(Cl)cc1)N1CCC(O)CC1", "value": 2.27}

Origin of values: patent US20250263376A1
